# Tested on: SNB-75
# assay.remarks: NCI tumour cell line growth inhibition, 48 h
Activity calls are given as the source filed them. Cut-off read from the data, not from the text of the source: active = GI50 up to about 1.1 µM and inactive = higher.
experimental.readout: GI50

Answered cases to consult:
{"compound": "COc1cc(/C=C/C(=O)Oc2ccc(NC(C)=O)cc2)ccc1C(=O)O/C=C/c1ccccc1", "observed.value": "> 100 µM (inactive)"}
{"compound": "Cc1cc(N(CCC#N)S(=O)(=O)c2ccccc2)ccc1/C=N/c1ccc(C(=O)O)cc1", "observed.value": "14 µM (inactive)"}
{"compound": "O=C(NC(=O)c1cn(CCNCCO)c(=O)[nH]c1=O)OCc1ccccc1", "observed.value": "45.9 µM (inactive)"}
{"compound": "C/C(=C\\c1ccccc1)C(O)S(=O)(=O)O (stereo not given)", "observed.value": "> 100 µM (inactive)"}

# GI50 lookup, item O=C1/C(=C/c2ccc(O)cc2)CCC1CNc1ccccc1 (stereo not given) 26.2 µM (inactive)

====

# Test system: Hs-578T
# assay.remarks: NCI tumour cell line growth inhibition, 48 h
Calls of active or inactive are those of the source. Rule as the data show it: active = GI50 up to about 1.1 µM and inactive = higher.
experimental.readout: GI50

Example entries and their recorded answers appear below.
{"compound": "CC(=O)C(=[N+]=[N-])C(=O)NCC#N", "GI50": "> 10 µM (inactive)"}
{"compound": "CC(=O)c1ccc2c(c1)C(=O)c1sc(C(C)=O)cc1C2=O", "GI50": "1.46 µM (inactive)"}
{"compound": "COc1ccc(-c2cc(-c3ccco3)c(C#N)c(=S)n2C2OC(CO)C(O)C(O)C2O)cc1 (stereo unspecified)", "GI50": "> 100 µM (inactive)"}
{"compound": "CC1CC(=O)N(N(C)C)C(C#N)(C#N)C1(C#N)C#N (stereo unspecified)", "GI50": "23.2 µM (inactive)"}
{"compound": "COc1cc2nc3n(c(=O)c2cc1OC)-c1ccc([N+](=O)[O-])cc1C3=O", "GI50": "> 100 µM (inactive)"}
{"compound": "CCCOc1ccc2sc(NC(=O)c3cc([N+](=O)[O-])cc([N+](=O)[O-])c3)nc2c1", "GI50": "13.7 µM (inactive)"}
{"compound": "CCN(CCCl)c1cc(CN(C)C)cc(NC(=O)C23CCC(C(=O)Nc4cc(CN(C)C)cc(N(CC)CCCl)c4)(CC2)CC3)c1", "GI50": "0.46 µM (active)"}
{"compound": "CSc1c(CC(=O)O)n(Cc2ccccc2)c2ccccc12", "GI50": "> 100 µM (inactive)"}
{"compound": "CCN(CC)/N=N/c1c(C(N)=O)n[nH]c1C", "GI50": "45.9 µM (inactive)"}
{"compound": "Cc1ccc([S@+]([O-])c2occc2C=O)cc1", "GI50": "16.4 µM (inactive)"}

Go through the list and state GI50 for each entry.
1. C=CC1(C)CCC2C(=CCC3C(C)(COC4OC(C(=O)O)C(O)C(O)C4O)C(O)CCC23C)C1.C=CC1(C)CCC2C(=CCC3C2(C)CC(O)C(O)C3(C)COC2OC(C(=O)O)C(O)C(O)C2O)C1 (stereo unspecified)
2. N#Cc1c(N)n(C2OC(CO)C(O)C2O)c2ncnc(N)c12 (stereo unspecified)
3. O=c1ccn(COC(COCc2ccccc2)COCc2ccccc2)c(=O)[nH]1
4. CN(CCNC(=O)c1cn(C)c2c1ccc1cc(Cl)c(Cl)cc12)CCNC(=O)c1cn(C)c2c1ccc1cc(Cl)c(Cl)cc12

> 100 µM (inactive)
0.144 µM (active)
> 100 µM (inactive)
2.17 µM (inactive)

====

# Test system: SK-MEL-28
# assay.remarks: NCI tumour cell line growth inhibition, 48 h
The source made the active and inactive calls. No stated cut-off is given here; in the data, active = GI50 up to about 1.1 µM and inactive = higher.
Response enum: class 1 = active, class 0 = inactive

Answered cases to consult:
{"molecule": "COC(=O)c1c(C)cccc1CC1Cc2c(C)cccc2C1=O (stereo not given)", "label": "class 0"}
{"molecule": "O=C1c2cc3c(cc2CC1Br)CCC3 (stereo not given)", "label": "class 0"}
{"molecule": "CN(C)c1ccc(/N=N/c2ccccn2)cc1", "label": "class 0"}

How did this test come out for CN(CCc1ccccn1)C(=S)N/N=C/c1ccccn1 ? class 1

Test call, this molecule: Cc1cc(C)nc(NC(=O)COc2ccc(Cl)cc2)c1 class 0

// param item: O=C(NC(=O)c1cn(CCNCCO)c(=O)[nH]c1=O)OCc1ccccc1 ; yields the recorded call class 0

Hello, I am checking results. What call was entered for CN(C)Cc1cc(/N=N/c2ccccc2)cc(CN(C)C)c1O ? class 0

Any idea what this test logged for COc1ccc(-c2cc(-c3ccco3)c(C#N)c(=S)n2C2OC(CO)C(O)C(O)C2O)cc1 (stereo not given) ? class 0

Fill in: this test's call for CN1C(=O)N(C)C2(CCN(CCCCCCF)CC2)C1=O is ___ class 0

Check the results log: what was the call for Cc1cccc2oc3c(c(=O)c12)CC(O)C(C)(C)O3 (stereo not given) ? class 0

Write down the call the test reported for this molecule. Item: Cc1ccc(NC(=O)COC(=O)c2cccc3c(=O)c4ccccc4[nH]c23)cc1 class 0

For CC1OC2OC3C(OCC(O)C3O)OC(=O)[C@]34CCC(C)(C)CC3C3=CCC5[C@@]6(C)C[C@H](O)[C@H](OC7OC(CO)C(O)C(O)C7OC7OC(COC(=O)CC(C)(O)CC(=O)OC1C(O)C2O)C(O)C(O)C7O)[C@@](C)(CO)C6CC[C@@]5(C)[C@]3(C)CC4 (stereo not given in full) , which call appears in the assay record? class 0

// param item: CC(=O)NCCSC(=O)c1ccccc1 ; yields the recorded call class 1

# lookup: test call for COc1c(CC(C)=O)ccc2c1C(=O)c1ccc(C=O)c(OC(C)=O)c1C2=O class 0

====

# Tested on: NCI-H460
# assay.remarks: NCI tumour cell line growth inhibition, 48 h
The source made the active and inactive calls. Cut-off read from the data, not from the text of the source: active = GI50 up to about 1.1 µM and inactive = higher. Positions of bridges follow the written chain, without caps; N, C: chain ends. Residues, ends and D or L forms follow the SMILES beside them.
Exercise: state measured GI50 for each of the molecules provided.

Some molecules with known GI50 results, for comparison:
{"molecule": "CC(C)c1[nH]nc(C(N)=O)c1/N=N/N(C)C", "system": "NCI-H460", "GI50": "42.5 µM (inactive)"}
{"molecule": "CN(C)Cc1cc(/N=N/c2ccccc2)cc(CN(C)C)c1O", "system": "NCI-H460", "GI50": "47.1 µM (inactive)"}
{"molecule": "COC(=O)C1CCC(=O)NCCCCC(NC(=O)C(N)CC(=O)O)C(=O)N1 (stereo not drawn) (H-Asp-Lys-Glu-OMe; lactam 2-3; configuration not given here)", "system": "NCI-H460", "GI50": "9.68 µM (inactive)"}

Parameter requested: GI50. Apply to each item below.
1. N#CC12CNCC1CN=N2 (stereo not given)
2. O=C(/C=C/c1ccccc1O)c1ccccc1Cl

1. > 100 µM (inactive)
2. 34 µM (inactive)

====

# Test system: SK-MEL-5
# assay.remarks: NCI tumour cell line growth inhibition, 48 h
Calls of active or inactive are those of the source. Rule as the data show it: active = GI50 up to about 1.1 µM and inactive = higher.
The reply should be one of these categories: active, inactive

Example entries begin here.
{"molecule": "CC1OC2OC3C(OCC(O)C3O)OC(=O)[C@]34CCC(C)(C)CC3C3=CCC5[C@@]6(C)C[C@H](O)[C@H](OC7OC(CO)C(O)C(O)C7OC7OC(COC(=O)CC(C)(O)CC(=O)OC1C(O)C2O)C(O)C(O)C7O)[C@@](C)(CO)C6CC[C@@]5(C)[C@]3(C)CC4 (stereo partly drawn)", "label": "inactive"}
{"molecule": "CC(C)(c1ccccc1)c1ccc(Oc2ccc3c(c2)-c2nc-3nc3[nH]c(nc4nc(nc5[nH]c(n2)c2ccc(Oc6ccc(C(C)(C)c7ccccc7)cc6)cc52)-c2cc(Oc5ccc(C(C)(C)c6ccccc6)cc5)ccc2-4)c2ccc(Oc4ccc(C(C)(C)c5ccccc5)cc4)cc32)cc1", "label": "inactive"}
{"molecule": "NS(=O)(=O)c1ccc(NC(=O)c2cccc3c(Nc4ccc(S(N)(=O)=O)cc4)c4ccccc4nc23)cc1", "label": "inactive"}

Recorded test call requested for COC(=O)CCC(NC(=S)N/N=C(\C)c1ccccn1)C(=O)OC (stereo not drawn) inactive

Name the outcome recorded for Cc1cc(CC(O)(C(F)(F)F)C(F)(F)F)cc(CC(O)(C(F)(F)F)C(F)(F)F)n1 in the assay. inactive

Identify the outcome logged in this assay for the molecule shown: Cn1c(Sc2ccc(-c3cccnc3)n2C)ccc1-c1cccnc1 inactive

Which result was noted for this molecule in the test: NC(=O)C1CCCNC1 (stereo not drawn) inactive

Per the assay record, what outcome was assigned to CCOC(=O)NC(Nc1ncccn1)(C(=O)OCC)C(F)(F)F (stereo not drawn) ? inactive

Would you mind telling me which call this test gave CC(=O)N1c2ccccc2N(C(C)=O)C1c1ccc(C2N(C(C)=O)c3ccccc3N2C(C)=O)[nH]1 ? inactive

Hey, what did the test say about Cc1ccc(NC(=O)COC(=O)c2cccc3c(=O)c4ccccc4[nH]c23)cc1 ? inactive
